Below, each entry is listed alongside its reported Amount of related substances (%; after 12 weeks).
measurement-protocol: Stability in aqueous solution, amount of related substances under long-term storage conditions
Assay type: physicochemical
run-parameters: glass vial, 25° C., 75% RH
Non-standard residues stand in square brackets, D forms with d. Residues, ends and D or L forms follow the SMILES beside them. Hyp = O=C(O)[C@@H]1C[C@@H](O)CN1; hSer = N[C@@H](CCO)C(=O)O
Write it as a number; the unit % goes unstated.

// Amount of related substances (%; after 12 weeks) lookup, key: CC(C)C[C@H](NC(=O)[C@H](Cc1ccc(O)cc1)NC(=O)[C@H](CC(=O)O)NC(=O)[C@H](CCC(N)=O)NC(=O)CNC(=O)[C@@H]1C[C@@H](O)CN1)C(=O)N[C@@H](C)C(=O)NCC(=O)N1CCC[C@H]1C(=O)N[C@@H](CCCCN)C(=O)O [YDE-020, HyP-Gly-Gln-Asp-Tyr-Leu-Ala-Gly-Pro-Lys] (H-[Hyp]GQDYLAGPK-OH)
21.54

Check CNC(=O)C[C@H](NC(=O)[C@H](CCC(N)=O)NC(=O)CNC(=O)[C@@H]1C[C@@H](O)CN1)C(=O)NCC(=O)N[C@@H](CC(C)C)C(=O)N[C@@H](C)C(=O)NCC(=O)N1CCC[C@H]1C(=O)N[C@@H](CCCCN)C(=O)O [YDE-028] (H-[Hyp]GQD(NHMe)GLAGPK-OH) too.
1.15

Similarly, CC(C)C[C@H](NC(=O)[C@H](C)NC(=O)[C@H](CC(=O)O)NC(=O)[C@H](CCC(N)=O)NC(=O)CNC(=O)[C@@H]1C[C@@H](O)CN1)C(=O)N[C@@H](C)C(=O)NCC(=O)N1CCC[C@H]1C(=O)N[C@@H](CCCCN)C(=O)O [YDE-018, HyP-Gly-Gln-Asp-Ala-Leu-Ala-Gly-Pro-Lys] (H-[Hyp]GQDALAGPK-OH) ?
25.39

Then what about the compound CC(C)C[C@H](NC(=O)CNC(=O)[C@H](CCO)NC(=O)[C@H](CCC(N)=O)NC(=O)CNC(=O)[C@@H]1C[C@@H](O)CN1)C(=O)N[C@@H](C)C(=O)NCC(=O)N1CCC[C@H]1C(=O)N[C@@H](CCCCN)C(=O)O [YDE-026] (H-[Hyp]GQ[hSer]GLAGPK-OH) ?
10.15

The measurements presented in this section are drawn from patent US12037415B2.
